# System: human primary T-cells, IL-2 stimulated proliferation (JAK-1 and JAK-3 dependent; reported as JAK3 activity)
# method.description: Human primary T-cell proliferation stimulated by IL-2 (Example 3)
# Type: cell-based
# test.conditions: Homo sapiens, T-cell, tested under conditions described in Example 3 (IL-2 stimulated human primary T-cell proliferation); read-out: ability to inhibit JAK3 activity, IC50 range (Table V)
Counter-ions that a name gives are not always drawn.
measure.name: IC50

Memo: Cc1cnc(Nc2ccc(-c3ccc(Cl)nc3)cc2)nc1Nc1ccc2oc(=O)[nH]c2c1 [Compound I-509, trifluoroacetate salt] , reported IC50: > 10000 nM

So, `Cc1cnc(Nc2ccc(N3CCCC3)nc2)nc1Nc1ccc2oc(=O)[nH]c2c1` ? Its IC50 was < 500 nM

IC50 in this record for `COc1cc(Nc2ncc(C)c(Nc3ccc4oc(=O)[nH]c4c3)n2)ccc1C(=O)NC1CC1` : < 500 nM

For record `Cc1cnc(Nc2ccc(N3CCN(C)CC3)nc2)nc1Nc1cc(C)c2oc(=O)[nH]c2c1` the listed IC50 is < 500 nM

The recorded IC50 for `Cc1cnc(Nc2ccc(C(=O)N3CCOCC3)cc2)nc1Nc1ccc2oc(=O)[nH]c2c1` is < 500 nM
